Measured On: PfATC (Plasmodium falciparum)
Measurement Protocol: biochemical
Experimental Conditions: in vitro enzyme assay, PfATC 50 nM, n = 3; read-out: IC50 against PfATC
Quick list: IC50 per entry.
Readout Name: IC50 (µM)

1) CCCNC(=O)c1cc(-c2ccccc2)sc1N : 5.69
2) CCCCNC(=O)c1cc(-c2ccccc2)sc1N : 3.32
3) C=CCNC(=O)c1cc(-c2ccccc2)sc1N : 4.61
4) C#CCNC(=O)c1cc(-c2ccccc2)sc1N : 4.91

---

Measured On: PfATC (Plasmodium falciparum, UniProt A0A5K1K910)
Sequence (A0A5K1K910 entry or part of it): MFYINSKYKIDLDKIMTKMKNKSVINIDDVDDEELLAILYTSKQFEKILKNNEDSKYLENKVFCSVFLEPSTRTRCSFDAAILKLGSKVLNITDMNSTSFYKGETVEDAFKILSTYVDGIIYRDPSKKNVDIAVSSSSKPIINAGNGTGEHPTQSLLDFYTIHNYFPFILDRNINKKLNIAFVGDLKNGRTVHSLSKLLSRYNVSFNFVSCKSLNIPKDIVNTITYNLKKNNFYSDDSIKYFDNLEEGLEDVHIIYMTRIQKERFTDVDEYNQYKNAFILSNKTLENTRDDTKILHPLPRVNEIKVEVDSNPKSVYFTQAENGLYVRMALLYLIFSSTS
Measurement Protocol: biochemical
Experimental Conditions: in vitro activity assay, PfATC 50 nM, 2 mM CP, 1 mM aspartate; read-out: PfATC IC50
pIC50: −log10 of the molar value.
Readout Name: pIC50

1. CC(C)(C)OC(=O)Nc1sc(-c2ccccc2)cc1C(=O)NCCc1ccc(C(F)(F)F)cc1 : 6.26
2. COC(=O)c1c(NC(=O)OC(C)(C)C)sc2c1CCN(Cc1ccccc1)C2 : 4.06
3. CC(C)(C)OC(=O)Nc1sc(-c2ccccc2)cc1C(=O)NCC(c1ccccc1)c1ccccc1 : 5.25
4. COc1cccc(CCNC(=O)c2cc(-c3ccccc3)sc2NC(=O)OC(C)(C)C)c1 : 6.99
5. CC(C)(C)OC(=O)Nc1sc(-c2cnc(N)nc2)cc1C(=O)NCCc1ccc(O)cc1 : 5.68
6. Nc1sc(-c2ccccc2)cc1C(=O)NCCc1ccccc1 : 5.90
7. CC(C)(C)OC(=O)NCC(=O)Nc1sc(-c2ccccc2)cc1C(=O)NCCc1ccc(O)cc1 : 5.94
8. Nc1sc(-c2ccccc2)cc1C(=O)NCCc1ccc(F)cc1 : 5.79
9. CC(C)(C)OC(=O)Nc1sc(-c2ccccc2)cc1C(=O)NCc1ccc(O)cc1 : 5.58
10. CC(C)(C)OC(=O)Nc1sc(-c2cccc(N3CCOCC3)c2)cc1C(=O)NCCc1ccc(O)cc1 : 5.81
11. CC(C)(C)OC(=O)Nc1sc(Cc2ccccc2)cc1C(=O)NCCc1ccc(O)cc1 : 5.51
12. CC(C)(C)OC(=O)Nc1sc2c(c1C(=O)NCCc1ccc(O)cc1)CCC(c1ccccc1)C2 (centres unmarked) : 4.91
13. CC(C)(C)OC(=O)Nc1sc(-c2ccc3c(c2)OCCO3)cc1C(=O)NCCc1ccc(O)cc1 : 6.29
14. CC(C)(C)OC(=O)Nc1sc(-c2ccccc2)cc1C(=O)NCCc1ccc(O)c(O)c1 : 6.74
15. CC(C)(C)OC(=O)Nc1sc(-c2ccccc2)cc1C(=O)NCC(O)c1ccccc1 (centres unmarked) : 5.22
16. CC(C)(C)OC(=O)Nc1sc(-c2ccc(Cl)c(Cl)c2)cc1C(=O)NCCc1ccc(O)cc1 : 5.65
17. CC(C)c1cc(C(=O)NCCc2ccc(O)cc2)c(N)s1 : 5.70
18. CC(C)(C)OC(=O)Nc1sc(-c2ccccc2)cc1C(=O)Nc1ccccc1 : 5.98
19. CC(C)(C)OC(=O)Nc1sc(-c2ccc(C=O)cc2)cc1C(=O)NCCc1ccc(O)cc1 : 5.42
20. CC(C)(C)OC(=O)Nc1sc(-c2ccccc2)cc1C(=O)N1CCN(c2ccc(O)cc2)CC1 : 5.96
21. Cc1ccc(-c2cc(C(=O)NCCc3ccc(O)cc3)c(NC(=O)OC(C)(C)C)s2)cc1 : 6.25
22. CC(C)(C)OC(=O)Nc1sc(-c2cccc(N)c2)cc1C(=O)NCCc1ccc(O)cc1 : 5.91
23. CC(C)(C)OC(=O)Nc1sc2c(c1C(=O)NCCc1ccc(O)cc1)CCCC2 : 4.74
24. CC(C)(C)OC(=O)Nc1sc(-c2ccccc2)cc1C(=O)NCC(=O)c1ccccc1 : 5.91
25. CC(C)(C)OC(=O)Nc1sc(-c2ccccc2)cc1C(=O)NCCc1ccc(Br)cc1 : 6.33
26. O=C(NCCc1ccccc1)c1cc(-c2ccccc2)sc1NCc1ncc[nH]1 : 6.19
27. CC(C)(C)OC(=O)Nc1sc(-c2cccc(C#N)c2)cc1C(=O)NCCc1ccc(O)cc1 : 5.57
28. Cc1c(-c2ccccc2)sc(NC(=O)OC(C)(C)C)c1C(=O)NCCc1ccc(O)cc1 : 5.23
29. CC(C)(C)OC(=O)Nc1sc(-c2ccccc2)cc1C(=O)NCCCc1ccccc1 : 6.24
30. COC(=O)c1cc(-c2ccccc2)sc1NC(=O)OC(C)(C)C : 5.83
31. CC(C)(C)OC(=O)Nc1sc(-c2ccccc2)cc1C(=O)NC1CCN(Cc2ccccc2)CC1 : 6.09
32. CC(C)(C)OC(=O)NCC1CCN(C(=O)c2cc(-c3ccccc3)sc2NC(=O)OC(C)(C)C)CC1 : 6.62
33. CC(C)(C)OC(=O)Nc1sc(-c2ccccc2)cc1C(=O)NCc1ccccc1 : 6.07
34. CC(C)(C)OC(=O)Nc1sc(-c2ccccc2)cc1C(=O)NCCN1CCOCC1 : 6.10
35. CC(C)(C)OC(=O)Nc1sc(Br)cc1C(=O)NCCc1ccc(O)cc1 : 5.56

These entries and their values trace back to paper PMC9585585.
